Biological target: TEAD1 (Homo sapiens (Human))
Sequence (P28347 whole entry, species assumed): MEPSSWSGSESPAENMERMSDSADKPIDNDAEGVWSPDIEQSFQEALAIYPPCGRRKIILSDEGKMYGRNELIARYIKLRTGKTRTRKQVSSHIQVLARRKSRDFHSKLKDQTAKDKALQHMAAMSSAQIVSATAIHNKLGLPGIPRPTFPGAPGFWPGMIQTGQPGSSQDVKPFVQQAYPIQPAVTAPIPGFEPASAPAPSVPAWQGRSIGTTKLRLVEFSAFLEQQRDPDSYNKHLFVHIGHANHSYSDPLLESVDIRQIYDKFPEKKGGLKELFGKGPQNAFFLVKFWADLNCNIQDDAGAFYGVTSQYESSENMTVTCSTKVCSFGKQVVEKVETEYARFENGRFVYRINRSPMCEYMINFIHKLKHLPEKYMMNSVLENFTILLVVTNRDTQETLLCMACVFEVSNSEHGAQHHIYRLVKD
Experiment: TEAD lipid pocket TR-FRET (Lipid HTRF) probe competition assay
Assay type: binding
Details: Lipid HTRF TEAD1 IC50, 4 hours incubation with compound
ENDPOINT: pIC50
In simple prose, pIC50 is minus the logarithm base ten of a concentration in moles per litre.

Given the entry [2H]C1([2H])COc2c(-c3ccc(C(C)C)cc3)cc(NCC(=C)C(=O)O)c(C#N)c21 [Compound 40] , report its measured pIC50.
7.70

* * *

Biological target: TEAD3 (Homo sapiens (Human))
Sequence (Q99594 whole entry, species assumed): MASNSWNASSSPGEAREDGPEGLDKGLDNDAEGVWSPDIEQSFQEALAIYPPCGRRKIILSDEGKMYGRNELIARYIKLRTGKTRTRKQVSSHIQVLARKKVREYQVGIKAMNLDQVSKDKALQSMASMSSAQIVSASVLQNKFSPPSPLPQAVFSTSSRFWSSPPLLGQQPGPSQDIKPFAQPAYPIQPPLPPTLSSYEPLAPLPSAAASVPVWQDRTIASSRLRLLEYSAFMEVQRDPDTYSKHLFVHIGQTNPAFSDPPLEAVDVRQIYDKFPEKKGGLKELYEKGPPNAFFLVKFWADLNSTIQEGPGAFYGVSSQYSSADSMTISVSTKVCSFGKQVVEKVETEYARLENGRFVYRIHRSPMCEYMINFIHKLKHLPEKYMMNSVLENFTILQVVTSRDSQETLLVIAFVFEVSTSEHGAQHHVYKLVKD
Test: TEAD lipid pocket TR-FRET (Lipid HTRF) probe competition assay
Format: binding
Conditions: 30 mins incubation with compound
ENDPOINT: pIC50
In simple prose, pIC50 is minus the logarithm base ten of a concentration in moles per litre.

C=C(CNc1cc(-c2ccc(C(C)C(F)(F)F)cc2)c2c(c1C#N)CCO2)C(=O)O (single isomer, unassigned) [Enantiomer C from Example 16] = 5.52
C=C(CN(C)c1cc(-c2ccc(C(C)C)cc2)c2c(c1C#N)CCO2)C(=O)O = 4.85
C=C(CNc1nc2c(c(-c3ccc(C(C)C)cc3)n1)OCC2)C(=O)O = 5.42
C=C(CNc1cc(-c2ccc(C(C)C)cc2)c2c(c1C#N)CCO2)C(=O)NO = 5.62
C=C(CNc1cc(-c2ccc(C(C)C)cc2)c2c(c1S(C)(=O)=O)CCO2)C(=O)O = 4.35

GET /values?readout=pIC50&system=TEAD3 (Homo sapiens (Human))&item= C=C(CNc1cc(-c2ccc(C(C)C(F)(F)F)cc2)c2c(c1C#N)CCO2)C(=O)O (single isomer, unassigned) [Enantiomer D from Example 16]
5.21

GET /values?readout=pIC50&system=TEAD3 (Homo sapiens (Human))&item= C=C(CNc1cc(-c2ccc(C(C)C)cc2)c2c(c1C#N)CCO2)C(N)=O
5.00

GET /values?readout=pIC50&system=TEAD3 (Homo sapiens (Human))&item= C=C(CNc1cc(-c2ccc(C(C)(F)F)cc2)c2c(c1C#N)CCO2)C(=O)O
5.19

GET /values?readout=pIC50&system=TEAD3 (Homo sapiens (Human))&item= C=C(CNc1cc(-c2ccc(C(C)C)cc2)c2c(c1C#N)CCO2)C(=O)OC
6.62

GET /values?readout=pIC50&system=TEAD3 (Homo sapiens (Human))&item= C=C(CNc1cc(-c2ccc(C(C)(F)F)cc2)c2ncsc2c1C#N)C(=O)O
4.70

GET /values?readout=pIC50&system=TEAD3 (Homo sapiens (Human))&item= C=C(CNc1cc(-c2ccc(C(C)C)cc2)c2c(c1CO)CCO2)C(N)=O
4.96

GET /values?readout=pIC50&system=TEAD3 (Homo sapiens (Human))&item= C=C(CNc1nc(-c2ccc(C(C)C)cc2)c2c(c1C#N)CCO2)C(=O)O
4.82

GET /values?readout=pIC50&system=TEAD3 (Homo sapiens (Human))&item= C=C(CNc1cc(-c2ccc(C(C)C)cc2)c2c(c1C#N)CCO2)C(C)=O
6.89

GET /values?readout=pIC50&system=TEAD3 (Homo sapiens (Human))&item= C=C(CNc1cc2c(c(-c3ccc(C(C)C)cc3)c1)OCC2)C(=O)O
5.08

* * *

Target: TEAD4 (Homo sapiens (Human), UniProt Q15561)
Sequence (Q15561 whole entry, species assumed): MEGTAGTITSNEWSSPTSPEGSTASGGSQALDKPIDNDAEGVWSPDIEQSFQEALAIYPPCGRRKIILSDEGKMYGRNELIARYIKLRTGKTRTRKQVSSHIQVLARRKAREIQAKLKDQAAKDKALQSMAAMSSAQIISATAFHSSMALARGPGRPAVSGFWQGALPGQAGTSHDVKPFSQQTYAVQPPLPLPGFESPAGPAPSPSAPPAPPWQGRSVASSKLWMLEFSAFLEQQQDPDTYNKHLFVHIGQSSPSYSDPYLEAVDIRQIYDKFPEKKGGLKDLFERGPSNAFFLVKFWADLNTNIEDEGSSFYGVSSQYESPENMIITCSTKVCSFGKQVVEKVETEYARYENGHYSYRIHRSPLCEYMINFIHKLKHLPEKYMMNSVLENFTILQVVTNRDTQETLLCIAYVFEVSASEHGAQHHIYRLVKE
Experiment: TEAD lipid pocket TR-FRET (Lipid HTRF) probe competition assay
Type: binding
Details: 4 hours incubation with compound; read-out: Lipid HTRF TEAD4 IC50
ENDPOINT: IC50 (µM)
Value expressed in µM; do not type the unit.

Some compounds with recorded IC50:
C=C(CNc1cc(-c2ccc(OC(F)(F)F)cc2)c2c(c1C#N)CCO2)C(N)=O = 0.14
[2H]C1([2H])Cc2c(C#N)c(NCC(=C)C(=O)NO)cc(-c3ccc(OC(F)(F)F)cc3)c2O1 = 0.05
C=C(CNc1cc(-c2ccc(OC(F)(F)F)cc2)c2c(c1C#N)CCO2)C(=O)N(C)O = 0.52
C=C(CNc1cc(-c2ccc(S(F)(F)(F)(F)F)cc2)c2c(c1C#N)CCO2)C(N)=O = 0.26
C=C(CNc1cc(-c2ccc(OC(F)(F)F)cc2)c2c(c1CO)CCO2)C(=O)NO = 0.06

Given the entry C=C(CNc1cc(-c2ccc(S(F)(F)(F)(F)F)cc2)c2c(c1C#N)CCO2)C(=O)NO , report its measured IC50.
0.08

Given the entry C=C(CNc1cc(-c2ncc(C(C)C)s2)c2c(c1C#N)CCO2)C(=O)NO , report its measured IC50.
0.17
